Target: Hypoxia-inducible factor 1-alpha (Homo sapiens) (UniProt Q16665)
Sequence (Q16665 whole entry, looked up): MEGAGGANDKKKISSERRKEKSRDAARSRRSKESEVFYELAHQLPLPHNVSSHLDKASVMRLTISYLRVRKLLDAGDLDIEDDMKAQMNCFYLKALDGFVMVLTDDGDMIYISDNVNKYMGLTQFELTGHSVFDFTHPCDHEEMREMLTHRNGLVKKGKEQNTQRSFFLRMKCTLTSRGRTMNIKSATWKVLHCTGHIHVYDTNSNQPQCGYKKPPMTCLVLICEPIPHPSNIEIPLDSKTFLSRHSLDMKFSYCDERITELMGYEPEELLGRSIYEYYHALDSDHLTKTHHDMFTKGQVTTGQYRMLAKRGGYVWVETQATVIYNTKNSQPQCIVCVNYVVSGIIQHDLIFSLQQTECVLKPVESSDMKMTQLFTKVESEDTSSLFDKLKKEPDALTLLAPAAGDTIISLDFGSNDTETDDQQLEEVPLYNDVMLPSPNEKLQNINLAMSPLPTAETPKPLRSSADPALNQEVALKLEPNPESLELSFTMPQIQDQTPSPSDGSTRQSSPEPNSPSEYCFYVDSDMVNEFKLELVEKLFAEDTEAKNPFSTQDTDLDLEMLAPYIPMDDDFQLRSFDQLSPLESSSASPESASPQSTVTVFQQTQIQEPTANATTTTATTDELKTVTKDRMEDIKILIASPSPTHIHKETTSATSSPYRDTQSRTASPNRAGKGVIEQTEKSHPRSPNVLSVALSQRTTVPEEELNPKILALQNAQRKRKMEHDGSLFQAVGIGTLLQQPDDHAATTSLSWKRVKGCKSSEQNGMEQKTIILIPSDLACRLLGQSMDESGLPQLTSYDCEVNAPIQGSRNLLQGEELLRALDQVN
Experiment: ATG_HIF1a_CIS: Attagene CIS-FACTORIAL HepG2 Assay for human Hypoxia Inducible Factor 1 (HIF1A) (AID 2282951)
Details: HepG2 Attagene cis-factorial HIF1a reporter transcription; actives raise or lower the signal
Active and inactive are the calls of the source. Rule for the calls: active = hit-call score of the fitted dose curve at least 0.9, where 1 is the maximum; inactive = score below 0.9.
Outcomes: True for active, False for inactive

molecule=O=C(O)c1cc(I)cc(I)c1I assigned_label=False
molecule=CCOP(=S)(OCC)Oc1ccc(Cl)cc1Cl assigned_label=False
molecule=Nc1nc(N)nc(Cl)n1 assigned_label=False
molecule=C1CN2CCN1CC2 assigned_label=True
molecule=CCCCCCCCCCBr assigned_label=False
molecule=CC(C)(C)c1cc([N+](=O)[O-])cc(C(C)(C)C)c1O assigned_label=False
molecule=O=C=Nc1ccc(Cl)cc1 assigned_label=False
molecule="O=C(NC(=O)c1c(F)cccc1F)Nc1cc(Cl)c(OC(F)(F)C(F)C(F)(F)F)cc1Cl (centres undefined)" assigned_label=False
molecule=Cc1cc(C)cc(C)c1 assigned_label=False
molecule=O=S(=O)(c1ccc(Cl)cc1)c1cc(Cl)c(Cl)cc1Cl assigned_label=False
molecule=Cc1cc(Cl)ccc1OCCCC(=O)O assigned_label=False
molecule=CCOP(=O)(OCC)OC(=CCl)c1ccc(Cl)cc1Cl assigned_label=False
molecule=Cc1cc(-c2cc(C)c(N)c(C)c2)cc(C)c1N assigned_label=False
molecule=C=CCc1ccccc1O assigned_label=False
